The reported numbers originate from PubChem BioAssay AID2060909.

Recorded viability, T/C for the following compounds
test system: 362531-283-R-J2-PDC complex spheroid viability; assay: Anticancer human tumor 362531-283-R-J2-PDC patient-derived colon adenocarcinoma cell line growth inhibition [RAS]; settings: second compound 0.316 µM; first compound 0.00316 µM; active compounds read low

COMPOUND	UNIT STRING	viability, T/C
CCN1CCN(Cc2ccc(Nc3ncc(F)c(-c4cc(F)c5nc(C)n(C(C)C)c5c4)n3)nc2)CC1 + C=CC(=O)N1CCN(c2nc(OCC3CCCN3C)nc3c(F)c(-c4nc(N)cc(C)c4C(F)(F)F)c(Cl)cc23)C(C)C1	%	114
Nc1ccn(C2OC(CO)C(O)C2(F)F)c(=O)n1 (stereo unspecified) + C=CC(=O)N1CCN(c2nc(OCC3CCCN3C)nc3c(F)c(-c4nc(N)cc(C)c4C(F)(F)F)c(Cl)cc23)C(C)C1	%	93.8
Nc1ccn(C2OC(CO)C(O)C2(F)F)c(=O)n1 (stereo unspecified) + C#Cc1c(F)ccc2cc(O)cc(-c3ncc4c(N5CC6CCC(C5)N6)nc(OCC56CCCN5CC(F)C6)nc4c3F)c12	%	92.5
CC(C)n1nc(-c2ccc3oc(N)nc3c2)c2c(N)ncnc21 + C=CC(=O)N1CCN(c2nc(OCC3CCCN3C)nc3c(F)c(-c4nc(N)cc(C)c4C(F)(F)F)c(Cl)cc23)C(C)C1	%	104
O=C(c1ccc(F)c(F)c1Nc1ccc(I)cc1F)N1CC(O)([C@@H]2CCCCN2)C1 + C=CC(=O)N1CCN(c2nc(OCC3CCCN3C)nc3c(F)c(-c4nc(N)cc(C)c4C(F)(F)F)c(Cl)cc23)C(C)C1	%	99.7
C=CC(=O)N1CCN(c2nc(OCC3CCCN3C)nc3c(F)c(-c4nc(N)cc(C)c4C(F)(F)F)c(Cl)cc23)C(C)C1 (stereo unspecified) + C#Cc1c(F)ccc2cc(O)cc(-c3ncc4c(N5CC6CCC(C5)N6)nc(OCC56CCCN5CC(F)C6)nc4c3F)c12	%	82.6

---

tested on: 362531-283-R-J2-PDC complex spheroid viability; experiment: Anticancer human tumor 362531-283-R-J2-PDC cell line growth inhibition [RAS]; conditions: second compound 10 µM; first compound 0.01 µM; active compounds read low;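 also: spheroids exposed to the agents for 7 days before readout; luminescence viability as percent of DMSO vehicle control wells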
viability, T/C strictly under 40% means condition met; at 40% or over means condition not met.

MOLECULE	QUALITATIVE LABEL
Nc1ccn(C2OC(CO)C(O)C2(F)F)c(=O)n1 (stereo unspecified) + C#Cc1c(F)ccc2cc(O)cc(-c3ncc4c(N5CC6CCC(C5)N6)nc(OCC56CCCN5CC(F)C6)nc4c3F)c12	condition not met
C=CC(=O)Nc1cc(Nc2nccc(-c3cn(C)c4ccccc34)n2)c(OC)cc1N(C)CCN(C)C + C#Cc1c(F)ccc2cc(O)cc(-c3ncc4c(N5CC6CCC(C5)N6)nc(OCC56CCCN5CC(F)C6)nc4c3F)c12	condition not met
CCN1CCN(Cc2ccc(Nc3ncc(F)c(-c4cc(F)c5nc(C)n(C(C)C)c5c4)n3)nc2)CC1 + C#Cc1c(F)ccc2cc(O)cc(-c3ncc4c(N5CC6CCC(C5)N6)nc(OCC56CCCN5CC(F)C6)nc4c3F)c12	condition not met
CC(C)n1nc(-c2ccc3oc(N)nc3c2)c2c(N)ncnc21 + C#Cc1c(F)ccc2cc(O)cc(-c3ncc4c(N5CC6CCC(C5)N6)nc(OCC56CCCN5CC(F)C6)nc4c3F)c12	condition met
O=C(c1ccc(F)c(F)c1Nc1ccc(I)cc1F)N1CC(O)([C@@H]2CCCCN2)C1 + C#Cc1c(F)ccc2cc(O)cc(-c3ncc4c(N5CC6CCC(C5)N6)nc(OCC56CCCN5CC(F)C6)nc4c3F)c12	condition met
C=CC(=O)N1CCN(c2nc(OCC3CCCN3C)nc3c(F)c(-c4nc(N)cc(C)c4C(F)(F)F)c(Cl)cc23)C(C)C1 (stereo unspecified) + C#Cc1c(F)ccc2cc(O)cc(-c3ncc4c(N5CC6CCC(C5)N6)nc(OCC56CCCN5CC(F)C6)nc4c3F)c12	condition not met

---

Test system: 362531-283-R-J2-PDC complex spheroid viability
Assay: Anticancer human tumor 362531-283-R-J2-PDC cell line growth inhibition [RAS];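 also: spheroids exposed to the agents for 7 days before readout; luminescence viability as percent of DMSO vehicle control wells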
Settings: compound 0.0316 µM; active compounds read low
Excerpt: RAS pathway inhibitors in Combinations in Complex Spheroids A high-throughput screen of multi-cell type tumor spheroids was designed to identify active combinations of RAS pathway inhibitors and targeted small molecules. Complex spheroids include a stromal component modeled by human endothelial cells (HUVEC) and fibroblasts modeled by human mesenchymal stem cells (MSCs). […] Compounds. […] If the clinical Cmax for an agent had not been determined, the highest concentration tested was 10 microM. […]
Recorded viability, T/C for the following compounds
MEASURED QUANTITY: viability, T/C

COMPOUND	SYSTEM TESTED	READOUT VALUE
CCC(CC)c1cc(NC2CCC(N)C2)n2nccc2n1 (configuration not stated)	362531-283-R-J2-PDC complex spheroid viability	106% [middle of 4 runs]
C=CC(=O)N1CCN(c2nc(OCC3CCCN3C)nc3c(F)c(-c4nc(N)cc(C)c4C(F)(F)F)c(Cl)cc23)C(C)C1 (configuration not stated)	362531-283-R-J2-PDC complex spheroid viability	102% [middle of 12 runs]
CC(=O)OC12COC1CC(O)C1(C)C(=O)C(O)C3=C(C)C(OC(=O)C(O)C(NC(=O)OC(C)(C)C)c4ccccc4)CC(O)(C(OC(=O)c4ccccc4)C21)C3(C)C (configuration not stated)	362531-283-R-J2-PDC complex spheroid viability	101% [middle of 4 runs]
CC(C)n1nc(-c2ccc3oc(N)nc3c2)c2c(N)ncnc21	362531-283-R-J2-PDC complex spheroid viability	63.5% [middle of 4 runs]
Nc1ccn(C2OC(CO)C(O)C2(F)F)c(=O)n1 (configuration not stated)	362531-283-R-J2-PDC complex spheroid viability	84.4% [middle of 4 runs]
CC(C)NCC(C(=O)N1CCN(c2ncnc3c2C(C)CC3O)CC1)c1ccc(Cl)cc1 (configuration not stated)	362531-283-R-J2-PDC complex spheroid viability	103% [middle of 4 runs]
CC(Nc1ccc2c(c1)OCCn1cc(N3C(=O)OCC3C(F)F)nc1-2)C(N)=O (configuration not stated)	362531-283-R-J2-PDC complex spheroid viability	96.9% [middle of 4 runs]
C[C@@H](NC(=O)c1ncnc(N)c1Cl)c1ncc(C(=O)Nc2cc(C(F)(F)F)c(Cl)cn2)s1	362531-283-R-J2-PDC complex spheroid viability	97.4% [middle of 4 runs]
NC1c2ccccc2OC12CCN(c1cnc3c(N4CCCc5ncccc54)n[nH]c3n1)CC2 (configuration not stated)	362531-283-R-J2-PDC complex spheroid viability	95.1% [middle of 4 runs]
C#Cc1c(F)ccc2cc(O)cc(-c3ncc4c(N5CC6CCC(C5)N6)nc(OCC56CCCN5CC(F)C6)nc4c3F)c12 (configuration not stated)	362531-283-R-J2-PDC complex spheroid viability	99.9% [middle of 8 runs]
Cc1nc(N2CCC3(CC2)COC(C)C3N)c(CO)nc1Sc1ccnc(N)c1Cl (configuration not stated)	362531-283-R-J2-PDC complex spheroid viability	101% [middle of 4 runs]
C=CC(=O)Nc1cc(Nc2nccc(-c3cn(C)c4ccccc34)n2)c(OC)cc1N(C)CCN(C)C	362531-283-R-J2-PDC complex spheroid viability	101% [middle of 4 runs]

---

Test system: 362531-283-R-J2-PDC complex spheroid viability
Test: Anticancer human tumor 362531-283-R-J2-PDC cell line growth inhibition [RAS];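 also: spheroids exposed to the agents for 7 days before readout; luminescence viability as percent of DMSO vehicle control wells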
Settings: second compound 0.00949 µM; first compound 0.0949 µM; active compounds read low
Excerpt: RAS pathway inhibitors in Combinations in Complex Spheroids A high-throughput screen of multi-cell type tumor spheroids was designed to identify active combinations of RAS pathway inhibitors and targeted small molecules. Complex spheroids include a stromal component modeled by human endothelial cells (HUVEC) and fibroblasts modeled by human mesenchymal stem cells (MSCs). […] Compounds. […] If the clinical Cmax for an agent had not been determined, the highest concentration tested was 10 microM. […]
Recorded viability, T/C for the following compounds
MEASURED QUANTITY: viability, T/C

COMPOUND	MEASURED QUANTITY	READOUT VALUE
CC1(C)CCC(Nc2ncc(C(F)(F)F)c(-c3c[nH]c4c(P(C)(C)=O)c(C#N)ccc34)n2)CN1 (centres undefined) + CCn1c(-c2cccnc2C(C)OC)c2c3cc(ccc31)N1CCOC(CC(NC(=O)C(C(C)C)N(C)C(=O)C3(F)CCN(C(=O)C#CC(C)(C)N(C)C)CC3)C(=O)N3CCCC(N3)C(=O)OCC(C)(C)C2)C1	viability, T/C	102%
CCc1c2c(nc3ccc(O)cc13)-c1cc3c(c(=O)n1C2)COC(=O)[C@]3(O)CC + CCn1c(-c2cc(N3CCN(C)CC3)cnc2C(C)OC)c2c3cc(ccc31)-c1csc(n1)CC(NC(=O)C1CC1C)C(=O)N1CCCC(N1)C(=O)OCC(C)(C)C2	viability, T/C	26.9%
CCc1c2c(nc3ccc(O)cc13)-c1cc3c(c(=O)n1C2)COC(=O)[C@]3(O)CC + CCn1c(-c2cccnc2C(C)OC)c2c3cc(ccc31)N1CCOC(CC(NC(=O)C(C(C)C)N(C)C(=O)C3(F)CCN(C(=O)C#CC(C)(C)N(C)C)CC3)C(=O)N3CCCC(N3)C(=O)OCC(C)(C)C2)C1	viability, T/C	35.5%
CC1(C)CCC(Nc2ncc(C(F)(F)F)c(-c3c[nH]c4c(P(C)(C)=O)c(C#N)ccc34)n2)CN1 (centres undefined) + CCn1c(-c2cc(N3CCN(C)CC3)cnc2C(C)OC)c2c3cc(ccc31)-c1csc(n1)CC(NC(=O)C1CC1C)C(=O)N1CCCC(N1)C(=O)OCC(C)(C)C2	viability, T/C	105%
